pKi values recorded for δ opioid receptor (DOR) (Homo sapiens, UniProt P41143)
Numbers only, as −log10 of the molar value.

Some solved entries appear below for comparison.
Input line: Note down pKi recorded for O=C(Cc1ccns1)N[C@@H]1CC[C@@]2(O)[C@H]3Cc4ccc(O)c5c4[C@@]2(CCN3CC2CC2)[C@H]1O5
Output line: 7.47

Input line: Note down pKi recorded for O=C(Cc1nccs1)N[C@H]1CC[C@@]2(O)[C@H]3Cc4ccc(O)c5c4[C@@]2(CCN3CC2CC2)[C@H]1O5
Output line: 8.89

Input line: Note down pKi recorded for O=C(CCc1cncs1)N[C@@H]1CC[C@@]2(O)[C@H]3Cc4ccc(O)c5c4[C@@]2(CCN3CC2CC2)[C@H]1O5
Output line: 7.50

Input line: Note down pKi recorded for O=C(Cc1cncs1)N[C@H]1CC[C@@]2(O)[C@H]3Cc4ccc(O)c5c4[C@@]2(CCN3CC2CC2)[C@H]1O5
Output line: 8.07

Input line: Note down pKi recorded for O=C(CCc1nccs1)N[C@H]1CC[C@@]2(O)[C@H]3Cc4ccc(O)c5c4[C@@]2(CCN3CC2CC2)[C@H]1O5
Output line: 8.93

Input line: Note down pKi recorded for O=C(N[C@H]1CC[C@@]2(O)[C@H]3Cc4ccc(O)c5c4[C@@]2(CCN3CC2CC2)[C@H]1O5)c1ccns1
Output line: 7.84

Alright, here's another compound for you.
Input line: Note down pKi recorded for O=C(CCc1nccs1)N[C@@H]1CC[C@@]2(O)[C@H]3Cc4ccc(O)c5c4[C@@]2(CCN3CC2CC2)[C@H]1O5
Output line: 7.73

---

Tested target: MOR (Mus musculus, UniProt P42866)
Sequence (P42866 whole entry): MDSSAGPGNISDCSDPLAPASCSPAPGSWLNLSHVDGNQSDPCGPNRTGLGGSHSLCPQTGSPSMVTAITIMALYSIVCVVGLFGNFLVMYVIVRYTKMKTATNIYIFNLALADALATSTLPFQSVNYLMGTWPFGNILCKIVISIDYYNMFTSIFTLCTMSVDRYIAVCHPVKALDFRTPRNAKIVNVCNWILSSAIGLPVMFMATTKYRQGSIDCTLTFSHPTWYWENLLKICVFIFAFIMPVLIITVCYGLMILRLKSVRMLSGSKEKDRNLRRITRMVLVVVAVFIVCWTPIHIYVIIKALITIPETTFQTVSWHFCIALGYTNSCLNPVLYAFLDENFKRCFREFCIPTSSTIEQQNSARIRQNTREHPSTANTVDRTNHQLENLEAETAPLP
Measurement description: MOR [35S]GTPγS functional assay
Strictly below 1 nM in EC50: met. Otherwise: not met.

Input line: API: query returns whether the molecule falls strictly under 1 nM in EC50. Query: O=C(Cc1cncs1)N[C@@H]1CC[C@@]2(O)[C@H]3Cc4ccc(O)c5c4[C@@]2(CCN3CC2CC2)[C@H]1O5
Output line: not met

Input line: API: query returns whether the molecule falls strictly under 1 nM in EC50. Query: O=C(Cc1ccns1)N[C@H]1CC[C@@]2(O)[C@H]3Cc4ccc(O)c5c4[C@@]2(CCN3CC2CC2)[C@H]1O5
Output line: not met

Input line: API: query returns whether the molecule falls strictly under 1 nM in EC50. Query: O=C(CCc1cncs1)N[C@@H]1CC[C@@]2(O)[C@H]3Cc4ccc(O)c5c4[C@@]2(CCN3CC2CC2)[C@H]1O5
Output line: not met

Input line: API: query returns whether the molecule falls strictly under 1 nM in EC50. Query: O=C(N[C@@H]1CC[C@@]2(O)[C@H]3Cc4ccc(O)c5c4[C@@]2(CCN3CC2CC2)[C@H]1O5)c1ccns1
Output line: met

Input line: API: query returns whether the molecule falls strictly under 1 nM in EC50. Query: O=C(Cc1ccns1)N[C@@H]1CC[C@@]2(O)[C@H]3Cc4ccc(O)c5c4[C@@]2(CCN3CC2CC2)[C@H]1O5
Output line: not met

Continue with the molecule presented below.
Input line: API: query returns whether the molecule falls strictly under 1 nM in EC50. Query: O=C(N[C@@H]1CC[C@@]2(O)[C@H]3Cc4ccc(O)c5c4[C@@]2(CCN3CC2CC2)[C@H]1O5)c1cncs1
Output line: not met
